Source of measurements: ChEMBL document CHEMBL1145135

Biological target: Mitogen-activated protein kinase 14 (Mus musculus)
Label y for high-side Tm (at or above 60 °C) and n for low-side Tm (below it).

Solved cases below.
CCOc1ccc(NC(=O)Nc2cc(C(C)(C)C)nn2-c2ccc(C)cc2)c2ccccc12 | n
Cc1ccc(-n2nc(C(C)(C)C)cc2NC(=O)Nc2ccc(OCCN3CCSCC3)c3ccccc23)cc1 | n
Cc1ccc(-n2nc(C(C)(C)C)cc2NC(=O)Nc2ccc(OCCc3ccncc3)c3ccccc23)cc1 | y

[Q] Reported Tm at or above 60 °C? CC(=O)Nc1cccc(-n2nc(C(C)(C)C)cc2NC(=O)Nc2ccc(OCCN3CCOCC3)c3ccccc23)c1
[A] n
